- MEASUREMENT DESCRIPTION: solvent given as SMILES
- RUN CONDITIONS: in O
MEASURED METRIC: absorption maximum (nm)
Hi! Could you send only the number? It should be in nm, unit omitted.

Some solved cases for reference:
CCC(=O)c1ccc2cc(N(C)C)ccc2c1 | 364
O=C([O-])c1ccc(C2=c3cc4c5c(c3Oc3c2cc2c6c3CCCN6CCC2)CCC[N+]=5CCC4)c(C(=O)[O-])c1 | 574
CCCCn1c(-c2ccc(-c3ccc(-c4ccc(-c5n(CCCC)c6cc(C)ccc6[n+]5CCCC)cc4)cc3)cc2)[n+](CCCC)c2ccc(C)cc21 | 304

Let's switch to this compound now.
absorption maximum reported for this compound `CC[N+](CC)=c1ccc2c(-c3ccccc3C(=O)O)c3c(=O)oc4cc5c(cc4c3oc-2c1)CCCN5C` : 601
